# Lookup of reported ncRNA array expression, patient 23 keyed by entry
- Test system: ncRNAs (SEQ ID NO 28-89)
- experiment description: ncRNA arrays of melanocytes, keratinocytes, normal skin, melanoma cell lines and patient samples
- Set-up: species or system human
- reported conditions: melanoma patient 23 sample compared to normal skin
- Description: An ncRNA array platform that contains over 10,000 putative (>200 nt) ncRNAs including most of the known ncRNAs in mouse and human was conducted to evaluate ncRNAs within melanoma. Lack of coding potential was estimated by an algorithm that scores various characteristics of protein-coding genes, including open reading frame length, synonymous/non-synonymous base substitution rates and similarity to known proteins. […]

>  <substance>
SEQ ID NO 88 (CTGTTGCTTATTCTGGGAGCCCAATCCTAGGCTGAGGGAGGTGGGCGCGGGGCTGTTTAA; listed as DNA, chemistry not given here; listed as Homo sapiens)

>  <ncRNA array expression, patient 23>
−0.3034

$$$$
>  <substance>
SEQ ID NO 78 (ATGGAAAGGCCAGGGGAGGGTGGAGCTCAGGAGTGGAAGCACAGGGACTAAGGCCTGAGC; listed as DNA, chemistry not given here; listed as Homo sapiens)

>  <ncRNA array expression, patient 23>
−1.0414

$$$$
>  <substance>
SEQ ID NO 67 (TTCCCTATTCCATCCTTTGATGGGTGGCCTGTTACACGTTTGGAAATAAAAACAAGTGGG; listed as DNA, chemistry not given here; listed as Homo sapiens)

>  <ncRNA array expression, patient 23>
2.369

$$$$
>  <substance>
SEQ ID NO 65 (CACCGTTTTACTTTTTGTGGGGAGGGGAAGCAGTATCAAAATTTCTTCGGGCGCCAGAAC; listed as DNA, chemistry not given here; listed as Homo sapiens)

>  <ncRNA array expression, patient 23>
−1.597

$$$$
>  <substance>
SEQ ID NO 66 (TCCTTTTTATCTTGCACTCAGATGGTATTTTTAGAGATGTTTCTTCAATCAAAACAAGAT; listed as DNA, chemistry not given here; listed as Homo sapiens)

>  <ncRNA array expression, patient 23>
1.37

$$$$

###

- Tested on: ncRNAs (SEQ ID NO 28-89)
- experiment description: ncRNA arrays of melanocytes, keratinocytes, normal skin, melanoma cell lines and patient samples
- Parameters: species or system human
- reported conditions: melanoma patient 3 sample compared to normal skin
Note to self: values exactly at 2 are T. So ncRNA array expression, patient 3 at or above 2 is T, below is F.

>  <substance>
SEQ ID NO 82 (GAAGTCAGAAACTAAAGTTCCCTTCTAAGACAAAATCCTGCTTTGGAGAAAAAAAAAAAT; listed as DNA, chemistry not given here; listed as Homo sapiens)

>  <measurement target>
ncRNAs (SEQ ID NO 28-89)

>  <label>
F

$$$$
>  <substance>
SEQ ID NO 60 (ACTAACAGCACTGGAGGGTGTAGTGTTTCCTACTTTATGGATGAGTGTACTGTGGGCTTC; listed as DNA, chemistry not given here; listed as Homo sapiens)

>  <measurement target>
ncRNAs (SEQ ID NO 28-89)

>  <label>
T

$$$$
>  <substance>
SEQ ID NO 70 (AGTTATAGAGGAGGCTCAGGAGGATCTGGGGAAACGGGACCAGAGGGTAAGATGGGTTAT; listed as DNA, chemistry not given here; listed as Homo sapiens)

>  <measurement target>
ncRNAs (SEQ ID NO 28-89)

>  <label>
F

$$$$
>  <substance>
SEQ ID NO 63 (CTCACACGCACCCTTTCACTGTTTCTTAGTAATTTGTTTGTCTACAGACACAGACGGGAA; listed as DNA, chemistry not given here; listed as Homo sapiens)

>  <measurement target>
ncRNAs (SEQ ID NO 28-89)

>  <label>
F

$$$$
>  <substance>
SEQ ID NO 36 (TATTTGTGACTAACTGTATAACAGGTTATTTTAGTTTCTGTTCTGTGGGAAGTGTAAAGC; listed as DNA, chemistry not given here; listed as Homo sapiens)

>  <measurement target>
ncRNAs (SEQ ID NO 28-89)

>  <label>
T

$$$$
>  <substance>
SEQ ID NO 35 (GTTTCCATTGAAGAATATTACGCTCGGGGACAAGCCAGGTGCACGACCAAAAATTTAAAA; DNA, backbone and methylation of C not given here; listed as Homo sapiens)

>  <measurement target>
ncRNAs (SEQ ID NO 28-89)

>  <label>
T

$$$$
>  <substance>
SEQ ID NO 84 (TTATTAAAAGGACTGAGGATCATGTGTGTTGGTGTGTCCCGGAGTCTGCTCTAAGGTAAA; listed as DNA, chemistry not given here; listed as Homo sapiens)

>  <measurement target>
ncRNAs (SEQ ID NO 28-89)

>  <label>
F

$$$$
>  <substance>
SEQ ID NO 33 (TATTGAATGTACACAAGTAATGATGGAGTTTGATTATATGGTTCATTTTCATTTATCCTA; DNA, backbone and methylation of C not given here; listed as Homo sapiens)

>  <measurement target>
ncRNAs (SEQ ID NO 28-89)

>  <label>
F

$$$$
>  <substance>
SEQ ID NO 51 (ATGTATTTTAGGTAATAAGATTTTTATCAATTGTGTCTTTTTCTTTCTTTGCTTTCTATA; listed as DNA, chemistry not given here; listed as Homo sapiens)

>  <measurement target>
ncRNAs (SEQ ID NO 28-89)

>  <label>
T

$$$$
>  <substance>
SEQ ID NO 62 (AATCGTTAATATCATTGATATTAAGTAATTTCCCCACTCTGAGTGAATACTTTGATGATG; listed as DNA, chemistry not given here; listed as Homo sapiens)

>  <measurement target>
ncRNAs (SEQ ID NO 28-89)

>  <label>
F

$$$$
>  <substance>
SEQ ID NO 50 (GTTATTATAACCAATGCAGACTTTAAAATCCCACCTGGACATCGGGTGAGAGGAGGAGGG; listed as DNA, chemistry not given here; listed as Homo sapiens)

>  <measurement target>
ncRNAs (SEQ ID NO 28-89)

>  <label>
F

$$$$
>  <substance>
SEQ ID NO 38 (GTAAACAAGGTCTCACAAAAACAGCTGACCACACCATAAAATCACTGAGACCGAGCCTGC; listed as DNA, chemistry not given here; listed as Homo sapiens)

>  <measurement target>
ncRNAs (SEQ ID NO 28-89)

>  <label>
F

$$$$
>  <substance>
SEQ ID NO 32 (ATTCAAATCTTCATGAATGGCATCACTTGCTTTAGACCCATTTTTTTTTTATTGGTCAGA; DNA, backbone and methylation of C not given here; listed as Homo sapiens)

>  <measurement target>
ncRNAs (SEQ ID NO 28-89)

>  <label>
F

$$$$
>  <substance>
SEQ ID NO 48 (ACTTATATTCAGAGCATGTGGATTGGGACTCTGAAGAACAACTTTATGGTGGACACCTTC; listed as DNA, chemistry not given here; listed as Homo sapiens)

>  <measurement target>
ncRNAs (SEQ ID NO 28-89)

>  <label>
T

$$$$
>  <substance>
SEQ ID NO 67 (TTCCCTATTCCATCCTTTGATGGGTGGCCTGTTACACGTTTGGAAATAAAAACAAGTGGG; listed as DNA, chemistry not given here; listed as Homo sapiens)

>  <measurement target>
ncRNAs (SEQ ID NO 28-89)

>  <label>
F

$$$$
>  <substance>
SEQ ID NO 89 (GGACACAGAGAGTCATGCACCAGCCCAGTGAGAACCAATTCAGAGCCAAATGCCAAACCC; listed as DNA, chemistry not given here; listed as Homo sapiens)

>  <measurement target>
ncRNAs (SEQ ID NO 28-89)

>  <label>
F

$$$$
>  <substance>
SEQ ID NO 44 (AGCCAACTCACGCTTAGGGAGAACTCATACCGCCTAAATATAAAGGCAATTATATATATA; listed as DNA, chemistry not given here; listed as Homo sapiens)

>  <measurement target>
ncRNAs (SEQ ID NO 28-89)

>  <label>
F

$$$$

###

- Tested on: ncRNAs (SEQ ID NO 28-89)
- experiment description: ncRNA arrays of melanocytes, keratinocytes, normal skin, melanoma cell lines and patient samples
- Design: species or system human
- reported conditions: melanoma patient 24 sample compared to normal skin
Returns one of satisfied or not satisfied; satisfied when ncRNA array expression, patient 24 is >= -0.9.

>  <substance>
SEQ ID NO 83 (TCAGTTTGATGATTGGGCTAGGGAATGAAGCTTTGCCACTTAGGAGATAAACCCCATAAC; listed as DNA, chemistry not given here; listed as Homo sapiens)

>  <label>
not satisfied

$$$$
>  <substance>
SEQ ID NO 89 (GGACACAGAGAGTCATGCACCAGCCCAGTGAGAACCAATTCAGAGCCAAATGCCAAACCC; listed as DNA, chemistry not given here; listed as Homo sapiens)

>  <label>
not satisfied

$$$$
>  <substance>
SEQ ID NO 40 (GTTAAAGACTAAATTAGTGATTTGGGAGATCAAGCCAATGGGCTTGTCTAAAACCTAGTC; listed as DNA, chemistry not given here; listed as Homo sapiens)

>  <label>
satisfied

$$$$
>  <substance>
SEQ ID NO 43 (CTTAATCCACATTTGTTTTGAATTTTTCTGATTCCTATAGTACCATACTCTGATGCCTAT; listed as DNA, chemistry not given here; listed as Homo sapiens)

>  <label>
not satisfied

$$$$
>  <substance>
SEQ ID NO 71 (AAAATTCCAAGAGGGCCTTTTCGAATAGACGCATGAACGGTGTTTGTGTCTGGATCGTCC; listed as DNA, chemistry not given here; listed as Homo sapiens)

>  <label>
satisfied

$$$$
